- System: H7N9 (influenza virus)
- Conditions: H7N9 in host cell MDCK
Measured parameter: SI (TC50/IC50)
Lab note: write the figure by itself, no unit.

So what SI (TC50/IC50) did CCN(/N=C/c1ccccc1C(=O)O)c1nc(-c2ccccc2Cl)cs1 [Compound 2] get with H7N9 (influenza virus)?
8

So what SI (TC50/IC50) did CN(/N=C/c1ccc(C(F)(F)F)cc1C(=O)O)c1nc(-c2ccccc2Cl)cs1 [Compound 8] get with H7N9 (influenza virus)?
66

So what SI (TC50/IC50) did O=C(O)c1cc(F)ccc1/C=N/Nc1nc(-c2ccccc2Cl)cs1 [Compound 10-1] get with H7N9 (influenza virus)?
516

So what SI (TC50/IC50) did O=C(O)c1cc(C(F)(F)F)ccc1/C=N/Nc1nc(-c2ccccc2Cl)cs1 [Compound 8-1] get with H7N9 (influenza virus)?
117

So what SI (TC50/IC50) did CN(/N=C/c1ccccc1C(=O)O)c1nc(-c2ccccc2Cl)cs1 [Compound 1] get with H7N9 (influenza virus)?
11

So what SI (TC50/IC50) did Cc1ccc(/C=N/N(C)c2nc(-c3ccccc3Cl)cs2)c(C(=O)O)c1 [Compound 9] get with H7N9 (influenza virus)?
83

So what SI (TC50/IC50) did Cc1sc(N/N=C/c2ccccc2C(=O)O)nc1-c1ccccc1 [Compound 12-1] get with H7N9 (influenza virus)?
108

So what SI (TC50/IC50) did Cc1ccc(/C=N/Nc2nc(-c3ccccc3Cl)cs2)c(C(=O)O)c1 [Compound 9-1] get with H7N9 (influenza virus)?
327

###

- System: H3N2 (influenza virus)
- Conditions: H3N2 in host cell MDCK
Exercise: for every item that follows, state its recorded SI (TC50/IC50).

Recorded SI (TC50/IC50) of O=C(O)c1ccccc1/C=N/Nc1nc(-c2ccccc2Cl)cs1 , please.
>250

Recorded SI (TC50/IC50) of CCCC(C)N(/N=C/c1ccccc1C(=O)O)c1nc(-c2ccccc2Cl)c(C)s1 (centres unmarked) , please.
1.6

Recorded SI (TC50/IC50) of CN(/N=C/c1ccccc1C(=O)O)c1nc(-c2cccc(Cl)c2)cs1 , please.
19.6

Recorded SI (TC50/IC50) of Cc1sc(N/N=C/c2ccccc2C(=O)O)nc1-c1ccccc1 [Compound 17] , please.
62.6

Recorded SI (TC50/IC50) of CCN(/N=C/c1ccccc1C(=O)O)c1nc(-c2ccccc2Cl)cs1 , please.
15

###

- Test system: H1N1 (influenza virus)
- Conditions: H1N1 in host cell MDCK
Measured parameter: SI (TC50/IC50)
Lab note: write the figure by itself, no unit.

So what SI (TC50/IC50) did CCN(/N=C/c1ccccc1C(=O)O)c1nc(-c2ccccc2Cl)cs1 get with H1N1 (influenza virus)?
8

So what SI (TC50/IC50) did Cc1ccc(/C=N/Nc2nc(-c3ccccc3Cl)cs2)c(C(=O)O)c1 get with H1N1 (influenza virus)?
653

So what SI (TC50/IC50) did CN(/N=C/c1ccc(C(F)(F)F)cc1C(=O)O)c1nc(-c2ccccc2Cl)cs1 get with H1N1 (influenza virus)?
49

So what SI (TC50/IC50) did Cc1sc(N/N=C/c2ccccc2C(=O)O)nc1-c1ccccc1 [Compound 12-1] get with H1N1 (influenza virus)?
362

So what SI (TC50/IC50) did O=C(O)c1cc(C(F)(F)F)ccc1/C=N/Nc1nc(-c2ccccc2Cl)cs1 get with H1N1 (influenza virus)?
138

So what SI (TC50/IC50) did CN(/N=C/c1cc(F)c(F)cc1C(=O)O)c1nc(-c2ccccc2Cl)cs1 get with H1N1 (influenza virus)?
223

So what SI (TC50/IC50) did CCCN(/N=C/c1ccccc1C(=O)O)c1nc(-c2ccccc2Cl)cs1 get with H1N1 (influenza virus)?
7

So what SI (TC50/IC50) did O=C(O)c1cc(F)c(F)cc1/C=N/Nc1nc(-c2ccccc2Cl)cs1 get with H1N1 (influenza virus)?
300

So what SI (TC50/IC50) did O=C(O)c1ccccc1/C=N/Nc1nc(-c2ccccc2)cs1 get with H1N1 (influenza virus)?
12

So what SI (TC50/IC50) did CN(/N=C/c1ccc(F)cc1C(=O)O)c1nc(-c2ccccc2Cl)cs1 get with H1N1 (influenza virus)?
233

So what SI (TC50/IC50) did CN(/N=C/c1ccccc1C(=O)O)c1nc(-c2ccccc2)cs1 get with H1N1 (influenza virus)?
22.8
